experiment: total protein half-life in vivo (active degradation + dilution); higher = more stable protein; conditions: E. coli NCM3722 delta-lon; growth: N-lim chemostat; doubling time 6 h
Each entry below lists one item and its recorded total protein half-life in vivo value.
Your reply should be a number followed by the unit it is expressed in.

{"Query sequence": "MPSLSKEAALVHEALVARGLETPLRPPVHEMDNETRKSLIAGHMTEIMQLLNLDLADDSLMETPHRIAKMYVDEIFSGLDYANFPKITLIENKMKVDEMVTVRDITLTSTCEHHFVTIDGKATVAYIPKDSVIGLSKINRIVQFFAQRPQVQERLTQQILIALQTLLGTNNVAVSIDAVHYCVKARGIRDATSATTTTSLGGLFKSSQNTRHEFLRAVRHHN [P0A6T5]", "Value type": "total protein half-life in vivo", "Data value": "1.82 h"}

Consider the record given below.
# get_value(readout='total protein half-life in vivo', item= MSEKLQKVLARAGHGSRREIESIIEAGRVSVDGKIAKLGDRVEVTPGLKIRIDGHLISVRESAEQICRVLAYYKPEGELCTRNDPEGRPTVFDRLPKLRGARWIAVGRLDVNTCGLLLFTTDGELANRLMHPSREVEREYAVRVFGQVDDAKLRDLSRGVQLEDGPAAFKTIKFSGGEGINQWYNVTLTEGRNREVRRLWEAVGVQVSRLIRVRYGDIPLPKGLPRGGWTELDLAQTNYLRELVELPPETSSKVAVEKDRRRMKANQIRRAVKRHSQVSGGRRSGGRNNNG )
5.92 h
